Source: the supplement of paper PMC10065799

- experimental-system: Grb2 SH2 (UniProt P62993)
- Sequence (P62993 whole entry, looked up): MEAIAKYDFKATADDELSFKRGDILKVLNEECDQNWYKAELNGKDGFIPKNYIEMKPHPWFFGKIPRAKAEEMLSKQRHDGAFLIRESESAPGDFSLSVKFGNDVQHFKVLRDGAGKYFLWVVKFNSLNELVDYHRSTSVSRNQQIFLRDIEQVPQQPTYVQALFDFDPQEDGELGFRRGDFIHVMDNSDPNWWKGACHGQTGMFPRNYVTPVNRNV
- test-method-notes: SH2 binding enrichment of the phosphorylated peptide, bacterial display (enrichment ratio); higher = better substrate or ligand; peptides without Tyr show the background
recorded-metric: SH2 binding enrichment

RRVLVYGDRGA [QDPR_Y16_G18D] | 0.838
LFSGDCFRIQG [DDR2_Y740_Y740C_YF] | 0.844
DFPMGYPSYLA [TBCK_Y153_I151M] | 0.825

----------
- experimental-system: FGFR3 (UniProt P22607)
- Sequence (P22607 whole entry, looked up): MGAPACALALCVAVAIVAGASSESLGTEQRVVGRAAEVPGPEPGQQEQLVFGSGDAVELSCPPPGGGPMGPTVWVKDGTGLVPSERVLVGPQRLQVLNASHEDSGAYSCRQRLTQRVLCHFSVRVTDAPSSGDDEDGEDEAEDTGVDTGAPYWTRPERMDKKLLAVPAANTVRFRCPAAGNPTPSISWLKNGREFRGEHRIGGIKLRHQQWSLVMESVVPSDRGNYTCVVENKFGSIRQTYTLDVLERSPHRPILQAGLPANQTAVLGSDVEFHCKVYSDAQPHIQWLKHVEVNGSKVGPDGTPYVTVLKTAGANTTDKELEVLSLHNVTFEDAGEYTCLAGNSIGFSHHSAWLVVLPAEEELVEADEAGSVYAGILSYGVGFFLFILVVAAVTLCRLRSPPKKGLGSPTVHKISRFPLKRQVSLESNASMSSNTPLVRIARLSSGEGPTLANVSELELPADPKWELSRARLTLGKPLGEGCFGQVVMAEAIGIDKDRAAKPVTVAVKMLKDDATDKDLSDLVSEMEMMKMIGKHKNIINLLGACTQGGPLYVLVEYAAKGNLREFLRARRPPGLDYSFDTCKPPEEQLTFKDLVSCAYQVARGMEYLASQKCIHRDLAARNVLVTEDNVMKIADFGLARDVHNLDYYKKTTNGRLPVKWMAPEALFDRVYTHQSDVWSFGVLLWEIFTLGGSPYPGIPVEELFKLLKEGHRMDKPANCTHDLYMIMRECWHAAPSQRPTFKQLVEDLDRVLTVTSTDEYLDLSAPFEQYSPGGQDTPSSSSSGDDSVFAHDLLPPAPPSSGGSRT
- test-method-notes: phosphorylation enrichment, bacterial display (enrichment ratio); higher = better substrate or ligand; peptides without Tyr show the background
Below, each entry is listed alongside its reported phosphorylation enrichment.
Please reply with the number alone, leaving off any unit.

Look over these answered cases.
RHPLEYLRQYP [NARS2_Y138] | 0.586
FTDPFYDFEIE [ZC3H18_Y372_A368T_YF] | 0.783
DLKFHYDNTAG [KDR_Y1214_P1210L] | 0.661
LNEWHYGGLTG [PGAM2_Y92_R90W] | 0.891

Task item: Look up phosphorylation enrichment with FGFR3 (UniProt P22607) for this sequence: EILLSYLRTGF [TGM1_Y365_YF]
Reply: 0.619

Task item: // map SRGHQYQELPR [KCNH2_Y1009_R1007H] to recorded phosphorylation enrichment (system: FGFR3 (UniProt P22607))
Reply: 0.464

Task item: Lab note: need phosphorylation enrichment with FGFR3 (UniProt P22607) for entry MSSLFYANALF [HOXB7_Y6_T9A_YF] , please look it up.
Reply: 0.743

Task item: Query the reported phosphorylation enrichment for FGFR3 (UniProt P22607); item: SMGHRYIEVFR [HNRNPF_Y82_K87R]
Reply: 0.506

Task item: Query for FGFR3 (UniProt P22607): what phosphorylation enrichment does the record show for QTWKTYVRHQQ [SFI1_Y164_Q167H] ?
Reply: 2.21

Task item: Value wanted: phosphorylation enrichment (FGFR3 (UniProt P22607)) of entry GSERRYTREGG [PTPRN2_Y139_S140T]
Reply: 0.407

Task item: Look up phosphorylation enrichment with FGFR3 (UniProt P22607) for this sequence: RLLRGYDQLAF [HLA-C_Y137_S140L_YF]
Reply: 0.639

Task item: phosphorylation enrichment of INNKMYDPKMN [ENPP1_Y280_D276N] on FGFR3 (UniProt P22607)?
Reply: 0.491

Task item: Any idea what phosphorylation enrichment came out for PSGPAYRGAVP [ASAH1_Y43_T42A] on FGFR3 (UniProt P22607)?
Reply: 0.423

Task item: Recall the recorded phosphorylation enrichment for IALNSYHSRNC [IFNGR1_Y397] with FGFR3 (UniProt P22607) and state it.
Reply: 0.525

Task item: API: value(readout=phosphorylation enrichment, system=FGFR3 (UniProt P22607)) for record TMKSRYMELYD [BBS2_Y644]
Reply: 0.556

Task item: Record SREDIYKRNTE [PDE4DIP_Y45_I49T] : what is its phosphorylation enrichment with FGFR3 (UniProt P22607)?
Reply: 0.696

Task item: API: value(readout= phosphorylation enrichment, system= FGFR3 (UniProt P22607), query= EAVKNYTEKRG [PBRM1_Y672_D674E] )
Reply: 0.449

Task item: Observed phosphorylation enrichment on FGFR3 (UniProt P22607) for PGLRGYPGLSG [COL4A2_Y306] , please.
Reply: 0.468

Task item: Please tell me: phosphorylation enrichment of FTFNSYFMHWV [IGHV1-46_Y51_T49N_YF] , system FGFR3 (UniProt P22607)?
Reply: 1.37

Task item: Tell me reported phosphorylation enrichment for AVDMTYDGHPV [FLNB_Y1020_V1018M] , tested with FGFR3 (UniProt P22607).
Reply: 0.737

Task item: Please provide the recorded phosphorylation enrichment for ETLLFYGCRRS [POR_Y564_YF] , tested on FGFR3 (UniProt P22607).
Reply: 0.445

Task item: What value of phosphorylation enrichment on FGFR3 (UniProt P22607) does AEQEEYSAMRD [NRAS_Y64_G60E] have?
Reply: 0.737

Task item: Kindly state the measured phosphorylation enrichment obtained for QRVLLYVRRET [GRHL3_Y518] with FGFR3 (UniProt P22607).
Reply: 0.781

Task item: Lab note: need phosphorylation enrichment with FGFR3 (UniProt P22607) for entry AYRHGYFDEEM [PLEC_Y2971_R2969H] , please look it up.
Reply: 0.657

Task item: # get_value(readout= phosphorylation enrichment, system= FGFR3 (UniProt P22607)) for KVKPIYFHTQG [AR_Y916]
Reply: 0.507

Task item: Give the reported phosphorylation enrichment for PFTRNYFVQAV [CYBA_Y87_R90Q_YF] (system: FGFR3 (UniProt P22607)).
Reply: 0.905

Task item: Fill in the recorded phosphorylation enrichment for this sequence, with FGFR3 (UniProt P22607) as test system: FSNPAYFVLEG [INPPL1_Y986_N982S_YF]
Reply: 4.24

Task item: # value lookup — system FGFR3 (UniProt P22607), readout phosphorylation enrichment, item GLRSYYETSKM [MAGED2_Y449]
Reply: 1.13

Task item: Value wanted: phosphorylation enrichment (FGFR3 (UniProt P22607)) of entry SSSGAYGGGFG [KRT19_Y61_YF]
Reply: 0.464
